Biological target: S. aureus GyrB ATPase (Staphylococcus aureus)
Sequence (P0AES4 whole entry): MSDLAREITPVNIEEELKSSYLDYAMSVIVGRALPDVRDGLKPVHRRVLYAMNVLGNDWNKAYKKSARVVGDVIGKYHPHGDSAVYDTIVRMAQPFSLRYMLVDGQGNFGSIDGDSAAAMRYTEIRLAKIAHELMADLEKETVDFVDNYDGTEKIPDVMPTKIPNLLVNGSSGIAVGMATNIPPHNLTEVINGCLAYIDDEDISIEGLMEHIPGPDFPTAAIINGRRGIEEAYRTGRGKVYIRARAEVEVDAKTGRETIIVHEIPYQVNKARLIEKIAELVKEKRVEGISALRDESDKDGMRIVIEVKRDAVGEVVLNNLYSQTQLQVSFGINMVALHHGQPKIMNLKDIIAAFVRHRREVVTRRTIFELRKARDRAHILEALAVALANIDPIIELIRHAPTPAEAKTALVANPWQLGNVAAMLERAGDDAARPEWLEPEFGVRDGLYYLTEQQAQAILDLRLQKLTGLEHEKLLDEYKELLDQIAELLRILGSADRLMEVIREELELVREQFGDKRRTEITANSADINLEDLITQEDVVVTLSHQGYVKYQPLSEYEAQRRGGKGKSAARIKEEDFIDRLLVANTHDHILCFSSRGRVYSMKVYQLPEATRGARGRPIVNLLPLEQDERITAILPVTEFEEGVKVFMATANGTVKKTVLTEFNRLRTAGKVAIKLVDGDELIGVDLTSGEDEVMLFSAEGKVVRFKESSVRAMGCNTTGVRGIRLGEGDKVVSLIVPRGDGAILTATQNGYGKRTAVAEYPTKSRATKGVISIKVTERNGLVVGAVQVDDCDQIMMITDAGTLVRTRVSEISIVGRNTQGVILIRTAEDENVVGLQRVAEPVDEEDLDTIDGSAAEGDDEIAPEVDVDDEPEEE
Sequence (P0A0K8 whole entry): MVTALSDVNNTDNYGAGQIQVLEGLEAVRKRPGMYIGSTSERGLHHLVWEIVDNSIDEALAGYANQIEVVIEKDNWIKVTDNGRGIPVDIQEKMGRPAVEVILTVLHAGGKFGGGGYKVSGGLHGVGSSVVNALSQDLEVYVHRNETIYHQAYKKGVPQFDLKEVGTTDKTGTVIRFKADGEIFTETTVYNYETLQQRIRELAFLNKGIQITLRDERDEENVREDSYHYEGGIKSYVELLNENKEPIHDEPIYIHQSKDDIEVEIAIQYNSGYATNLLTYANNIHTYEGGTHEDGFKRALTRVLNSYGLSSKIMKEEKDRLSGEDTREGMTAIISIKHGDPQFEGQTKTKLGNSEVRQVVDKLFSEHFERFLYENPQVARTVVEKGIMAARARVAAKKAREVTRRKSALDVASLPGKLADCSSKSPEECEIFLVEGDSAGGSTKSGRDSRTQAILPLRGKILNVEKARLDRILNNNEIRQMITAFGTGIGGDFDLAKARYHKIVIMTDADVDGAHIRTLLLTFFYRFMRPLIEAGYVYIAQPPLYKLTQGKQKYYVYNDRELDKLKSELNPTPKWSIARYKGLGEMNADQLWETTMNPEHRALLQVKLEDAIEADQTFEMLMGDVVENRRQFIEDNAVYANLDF
Assay: S. aureus GyrB ATPase inhibition (ammonium molybdate/malachite green phosphate detection)
Format: biochemical
Settings: compound concentration of 1 μM
reported_endpoint: inhibition at 1 µM (%)

substance_smiles=CCOC(=O)c1sc(N2CC[C@@H](NC(=O)c3[nH]c(C)c(Cl)c3Cl)[C@@H](F)C2)nc1-c1ccccn1 reported_endpoint="inhibition at 1 µM" recorded_number=112
substance_smiles=CCOC(=O)c1sc(N2CC[C@@H](NC(=O)c3[nH]c(C)c(Cl)c3Cl)[C@@H](F)C2)nc1-c1cc(OC)ccn1 reported_endpoint="inhibition at 1 µM" recorded_number=84.4
substance_smiles=CNc1nc(-c2nc(N3CC[C@@H](NC(=O)c4[nH]c(C)c(Cl)c4Cl)[C@@H](OC)C3)sc2C(=O)O)cs1 reported_endpoint="inhibition at 1 µM" recorded_number=99.6
substance_smiles=Cc1[nH]c(C(=O)N[C@@H]2CCN(c3nc(-c4nccn4C)c(C(=O)O)s3)C[C@@H]2F)c(Cl)c1Cl reported_endpoint="inhibition at 1 µM" recorded_number=101
substance_smiles=CO[C@H]1CN(c2nc(-c3csc(N)n3)c(C(=O)O)s2)CC[C@H]1NC(=O)c1[nH]c(C)c(Cl)c1Cl reported_endpoint="inhibition at 1 µM" recorded_number=101
substance_smiles=CO[C@H]1CN(c2nc(-c3ccncn3)c(C(=O)O)s2)CC[C@H]1NC(=O)c1[nH]c(C)c(Cl)c1Cl reported_endpoint="inhibition at 1 µM" recorded_number=101
substance_smiles=CNc1nc(-c2nc(N3CC[C@@H](NC(=O)c4[nH]c(C)c(Cl)c4Cl)[C@@H](F)C3)sc2C(=O)O)cs1 reported_endpoint="inhibition at 1 µM" recorded_number=101
substance_smiles=CCOC(=O)c1sc(N2CC[C@@H](NC(=O)c3[nH]c(C)c(Cl)c3Cl)[C@@H](OC)C2)nc1-c1cnccn1 reported_endpoint="inhibition at 1 µM" recorded_number=100
substance_smiles=Cc1[nH]c(C(=O)N[C@@H]2CCN(c3nc(-c4ncnn4C)c(C(=O)O)s3)C[C@@H]2OCc2ccccc2)cc1Cl reported_endpoint="inhibition at 1 µM" recorded_number=116
substance_smiles=CO[C@H]1CN(c2nc(-c3cnccn3)c(C(=O)O)s2)CC[C@H]1NC(=O)c1[nH]c(C)c(Cl)c1Cl reported_endpoint="inhibition at 1 µM" recorded_number=105
substance_smiles=COC(=O)c1sc(N2CC[C@@H](NC(=O)c3[nH]c(C)c(Cl)c3Cl)[C@@H](F)C2)nc1-c1ncnn1C reported_endpoint="inhibition at 1 µM" recorded_number=75.2
substance_smiles=COC(=O)c1sc(N2CC[C@@H](NC(=O)c3[nH]c(C)c(Cl)c3Cl)[C@@H](F)C2)nc1-c1ccn[nH]1 reported_endpoint="inhibition at 1 µM" recorded_number=99.8
substance_smiles=COC(=O)c1sc(N2CC[C@@H](NC(=O)c3[nH]c(C)c(C#N)c3Cl)[C@@H](OC)C2)nc1-c1ncnn1C reported_endpoint="inhibition at 1 µM" recorded_number=99.7
substance_smiles=Cc1[nH]c(C(=O)N[C@@H]2CCN(c3nc(-c4ncccc4F)c(C(=O)O)s3)C[C@@H]2OCc2ccccc2)c(C#N)c1Cl reported_endpoint="inhibition at 1 µM" recorded_number=112
substance_smiles=CNc1nc(-c2nc(N3CC[C@@H](NC(=O)c4[nH]c(C)c(Cl)c4Cl)[C@@H](OC)C3)sc2C(=O)OC)cs1 reported_endpoint="inhibition at 1 µM" recorded_number=101
substance_smiles=COC(=O)c1sc(N2CC[C@@H](NC(=O)c3[nH]c(C)c(Cl)c3Cl)[C@@H](OC)C2)nc1-c1cn(C)nn1 reported_endpoint="inhibition at 1 µM" recorded_number=100
substance_smiles=Cc1[nH]c(C(=O)N[C@@H]2CCN(c3nc(-c4cnccn4)c(C(=O)O)s3)C[C@@H]2OCc2ccccc2)c(Cl)c1Cl reported_endpoint="inhibition at 1 µM" recorded_number=113
substance_smiles=COC(=O)c1sc(N2CC[C@@H](NC(=O)c3[nH]c(C)c(Cl)c3Cl)[C@@H](OC)C2)nc1-c1ccno1 reported_endpoint="inhibition at 1 µM" recorded_number=104
substance_smiles=Cc1[nH]c(C(=O)N[C@@H]2CCN(c3nc(-c4cnccn4)c(C(=O)O)s3)C[C@@H]2OCc2ccccc2)c(C#N)c1Cl reported_endpoint="inhibition at 1 µM" recorded_number=110
substance_smiles=CO[C@H]1CN(c2nc(-c3nnc(C)o3)c(C(=O)O)s2)CC[C@H]1NC(=O)c1[nH]c(C)c(Cl)c1Cl reported_endpoint="inhibition at 1 µM" recorded_number=101
substance_smiles=Cc1[nH]c(C(=O)N[C@@H]2CCN(c3nc(-c4nc5ccccc5s4)c(C(=O)O)s3)C[C@@H]2F)c(Cl)c1Cl reported_endpoint="inhibition at 1 µM" recorded_number=101
substance_smiles=COC(=O)c1sc(N2CC[C@@H](NC(=O)c3[nH]c(C)c(Cl)c3C#N)[C@@H](OC)C2)nc1-c1cn(C)nn1 reported_endpoint="inhibition at 1 µM" recorded_number=85.7
substance_smiles=Cc1[nH]c(C(=O)N[C@@H]2CCN(c3nc(-c4cn(C)nn4)c(C(=O)O)s3)C[C@@H]2F)c(Cl)c1Cl reported_endpoint="inhibition at 1 µM" recorded_number=101
substance_smiles=CO[C@H]1CN(c2nc(-c3ncccc3F)c(C(=O)O)s2)CC[C@H]1NC(=O)c1[nH]c(C)c(Cl)c1C#N reported_endpoint="inhibition at 1 µM" recorded_number=104
substance_smiles=COCCn1ccnc1-c1nc(N2CC[C@@H](NC(=O)c3[nH]c(C)c(Cl)c3Cl)[C@@H](OC)C2)sc1C(=O)O reported_endpoint="inhibition at 1 µM" recorded_number=98.3
substance_smiles=COCCn1ccnc1-c1nc(N2CC[C@@H](NC(=O)c3cc(Cl)c(C)[nH]3)[C@@H](OCc3ccccc3)C2)sc1C(=O)O reported_endpoint="inhibition at 1 µM" recorded_number=99.9
substance_smiles=CCOC(=O)c1sc(N2CC[C@@H](NC(=O)c3[nH]c(C)c(Cl)c3Cl)[C@@H](F)C2)nc1-c1ccncn1 reported_endpoint="inhibition at 1 µM" recorded_number=102

---

Target: S. aureus GyrB ATPase (Staphylococcus aureus)
Assay: S. aureus GyrB ATPase inhibition (ammonium molybdate/malachite green phosphate detection)
Assay type: biochemical
Conditions: compound concentration of 1 μM
reported_endpoint: inhibition at 1 µM (%)

substance_smiles=CO[C@H]1CN(c2nc(-c3ncnn3C)c(C(=O)O)s2)CC[C@H]1NC(=O)c1cc(C#N)c(C)[nH]1 reported_endpoint="inhibition at 1 µM" recorded_number=99.3
substance_smiles=CCOC(=O)c1sc(N2CC[C@@H](NC(=O)c3[nH]c(C)c(Cl)c3Cl)[C@@H](OC)C2)nc1-c1cnc(C)cn1 reported_endpoint="inhibition at 1 µM" recorded_number=90.2
substance_smiles=Cc1[nH]c(C(=O)N[C@@H]2CCN(c3nc(-c4ncccc4F)c(C(=O)O)s3)C[C@@H]2OCc2ccccc2)cc1Cl reported_endpoint="inhibition at 1 µM" recorded_number=103
substance_smiles=CCOC(=O)c1sc(N2CC[C@@H](NC(=O)c3[nH]c(C)c(Cl)c3Cl)[C@@H](OC)C2)nc1-c1nc(OC)cc(OC)n1 reported_endpoint="inhibition at 1 µM" recorded_number=101
substance_smiles=COC(=O)c1sc(N2CC[C@@H](NC(=O)c3[nH]c(C)c(Cl)c3Cl)[C@@H](OC)C2)nc1-c1csc(N(C)C)n1 reported_endpoint="inhibition at 1 µM" recorded_number=99.9
substance_smiles=COC(=O)c1sc(N2CC[C@@H](NC(=O)c3[nH]c(C)c(Cl)c3Cl)[C@@H](OC)C2)nc1-c1nc(C)c(C)n1C reported_endpoint="inhibition at 1 µM" recorded_number=99.5
substance_smiles=COC(=O)c1sc(N2CC[C@@H](NC(=O)c3[nH]c(C)c(Cl)c3Cl)[C@@H](OC)C2)nc1-c1nccs1 reported_endpoint="inhibition at 1 µM" recorded_number=99.6
substance_smiles=Cc1[nH]c(C(=O)N[C@@H]2CCN(c3nc(-c4ccccn4)c(C(=O)O)s3)C[C@@H]2F)c(Cl)c1Cl reported_endpoint="inhibition at 1 µM" recorded_number=106
substance_smiles=COCCn1ccnc1-c1nc(N2CC[C@@H](NC(=O)c3[nH]c(C)c(Cl)c3Cl)[C@@H](OC)C2)sc1C(=O)OC reported_endpoint="inhibition at 1 µM" recorded_number=96.2
substance_smiles=COC(=O)c1sc(N2CC[C@@H](NC(=O)c3[nH]c(C)c(Cl)c3Cl)[C@@H](F)C2)nc1-c1cccc(OC)n1 reported_endpoint="inhibition at 1 µM" recorded_number=112
substance_smiles=Cc1[nH]c(C(=O)N[C@@H]2CCN(c3nc(-c4cnccn4)c(C(=O)O)s3)C[C@@H]2OCc2ccccc2)cc1Cl reported_endpoint="inhibition at 1 µM" recorded_number=102
substance_smiles=CO[C@H]1CN(c2nc(-c3cn(C)cn3)c(C(=O)O)s2)CC[C@H]1NC(=O)c1[nH]c(C)c(Cl)c1C#N reported_endpoint="inhibition at 1 µM" recorded_number=103
substance_smiles=COC(=O)c1sc(N2CC[C@@H](NC(=O)c3[nH]c(C)c(Cl)c3Cl)[C@@H](F)C2)nc1-c1ncc[nH]1 reported_endpoint="inhibition at 1 µM" recorded_number=71
substance_smiles=CO[C@H]1CN(c2nc(-c3ccccn3)c(C(=O)O)s2)CC[C@H]1NC(=O)c1[nH]c(C)c(Cl)c1Cl reported_endpoint="inhibition at 1 µM" recorded_number=97.1

All values here come from patent US20080312255A1.
